- Test system: MCF7
- assay remarks: Cytotoxicity against human MCF7 cells by MTT assay
- Assay type: functional, cell-based

{"smiles input": "Cc1cc(C2=C(C(C)C)CC[C@H]2C)oc(=O)c1O", "target entity": "MCF7", "IC50, µM": 9.3}

---

- System: Rhodotorula glutinis
- assay remarks: Antimicrobial activity against Rhodotorula glutinis DSM 10134 by serial dilution assay
- Assay type: functional, organism-based
The source made the active and inactive calls. The rule behind the calls is not given here.
value kind: Activity

{"smiles input": "CC1=C/C(=C2/[C@H](C)CC[C@@H]2[C@H](C)CO)OC1=O", "value kind": "Activity", "recorded value": "Active"}
{"smiles input": "CC1=C(O)C(=O)[C@]23C(=O)[C@H]1[C@H](O)[C@@H](C)[C@H]2CC[C@H]3C", "value kind": "Activity", "recorded value": "Active"}
{"smiles input": "Cc1cc(C2=C(C(C)C)CC[C@H]2C)oc(=O)c1O", "value kind": "Activity", "recorded value": "Active"}
{"smiles input": "CC1=CC(=O)[C@]2(C1=O)[C@H](C)CC[C@@H]2[C@H](C)CO", "value kind": "Activity", "recorded value": "Active"}
{"smiles input": "CC1=C/C(=C2\\[C@H](C)CC[C@@H]2[C@H](C)CO)OC1=O", "value kind": "Activity", "recorded value": "Active"}
{"smiles input": "Cc1cc([C@]23OC[C@@H](C)[C@H]2CC[C@H]3C)oc(=O)c1O", "value kind": "Activity", "recorded value": "Active"}
{"smiles input": "CC1=C/C(=C2/[C@H](C)CC[C@@H]2C(C)C)OC1=O", "value kind": "Activity", "recorded value": "Active"}
